Data provenance: ChEMBL document CHEMBL1961873

# tested-on: Serine/threonine-protein kinase PAK 1 (Homo sapiens) (UniProt Q13153)
# Sequence (Q13153 whole entry): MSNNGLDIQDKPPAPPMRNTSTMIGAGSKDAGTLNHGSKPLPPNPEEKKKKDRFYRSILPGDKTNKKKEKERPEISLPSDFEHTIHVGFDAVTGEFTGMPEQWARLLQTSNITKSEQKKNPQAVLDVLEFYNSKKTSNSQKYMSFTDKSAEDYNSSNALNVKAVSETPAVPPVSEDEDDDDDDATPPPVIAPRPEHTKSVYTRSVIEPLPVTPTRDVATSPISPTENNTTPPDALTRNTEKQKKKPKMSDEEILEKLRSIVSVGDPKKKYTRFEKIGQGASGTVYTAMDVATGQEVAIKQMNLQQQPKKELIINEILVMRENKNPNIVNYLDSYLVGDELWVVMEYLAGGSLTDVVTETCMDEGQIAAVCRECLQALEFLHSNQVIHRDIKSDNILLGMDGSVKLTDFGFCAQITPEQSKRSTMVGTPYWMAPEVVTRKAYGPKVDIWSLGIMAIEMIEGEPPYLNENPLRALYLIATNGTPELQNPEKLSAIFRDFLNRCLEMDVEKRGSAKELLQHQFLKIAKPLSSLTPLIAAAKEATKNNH
# test-parameters: at 0.1 µM;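 note: values are mean PAK1 inhibition from the GSK PKIS kinase inhibitor set screen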
quantity: inhibition (%)
Kindly answer with a numeric value in %, unit omitted.

Examples with their reported inhibition follow.
- chemical-string: "Nc1ncc(-c2cccc(S(N)(=O)=O)c2)c2scc(-c3ccc(F)c(Cl)c3)c12"
  recorded-number: 3.95
- chemical-string: "CS(=O)(=O)CCNCc1ccc(-c2ccc3ncnc(Nc4ccc(OCc5ccccc5)c(C(F)(F)F)c4)c3c2)o1"
  recorded-number: 4.26
- chemical-string: "CCOc1ccc2c(-c3ccnc(Nc4cccc(C(F)(F)F)c4)n3)cnn2n1"
  recorded-number: 4.57
- chemical-string: "Clc1ccc(-c2nn3ncccc3c2-c2ccnc(Nc3ccccc3)n2)cc1"
  recorded-number: 2.29
- chemical-string: "COc1cc(N2CCN(C(C)C)CC2)ccc1Nc1nc(Nc2ccc(F)cc2C(N)=O)c2cc[nH]c2n1"
  recorded-number: 3.63

Turning now to a further record.
*Q* Provide the documented inhibition with Serine/threonine-protein kinase PAK 1 (Homo sapiens) (UniProt Q13153) as the system for "CC(=O)Nc1cccc(C#Cc2cncnc2Nc2ccc(OCc3cccc(F)c3)c(Cl)c2)c1"
*A* 3.48
